- measured-on: T1, Human 4-1BB extracellular domain recombinant protein (his-tag) (human, UniProt Q07011 24-186)
- T1 construct: extracellular domain; also called Human4-1BB, his-tag; human 4-1BB extracellular region recombinant protein; not shown: his-tag
- procedure-summary: ELISA, coated human 4-1BB-his 200 ng/well; antibody 1.11 µg/ml
Threshold-based label: absorbance at 450 nm under 1 gives MET, absorbance at 450 nm not under 1 gives NOT MET.

[
  {
    "binder": "137-39 VHH-hFc recombinant antibody (Fc fusion, VHH fragment inserted into vector pFclG with human IgG1 Fc tag, expressed in HEK293F; Preparation had non-specific bands, purity about 30%; not shown: human IgG1 Fc tag of the eukaryotic expression vector pFclG) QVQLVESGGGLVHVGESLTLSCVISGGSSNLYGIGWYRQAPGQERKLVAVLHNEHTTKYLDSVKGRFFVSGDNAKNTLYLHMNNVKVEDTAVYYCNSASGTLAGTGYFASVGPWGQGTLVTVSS",
    "label-value": "MET"
  },
  {
    "binder": "137-36 VHH-hFc recombinant antibody (Fc fusion, VHH fragment inserted into vector pFclG with human IgG1 Fc tag, expressed in HEK293F; not shown: human IgG1 Fc tag of the eukaryotic expression vector pFclG) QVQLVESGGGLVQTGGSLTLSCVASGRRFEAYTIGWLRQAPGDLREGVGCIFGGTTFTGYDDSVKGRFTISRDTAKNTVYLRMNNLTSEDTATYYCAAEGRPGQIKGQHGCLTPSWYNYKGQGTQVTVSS",
    "label-value": "MET"
  },
  {
    "binder": "137-16 VHH-hFc recombinant antibody (Fc fusion, VHH fragment inserted into vector pFclG with human IgG1 Fc tag, expressed in HEK293F; Preparation had non-specific bands, purity >70%; also called CD137-16; not shown: human IgG1 Fc tag of the eukaryotic expression vector pFclG) EVQLVESGGGLVQAGASLTLSCVISGRTFSSYAMGWYRQAPGKERAFVGTITWNNDIIYSDSVKGRFTISTDDGKNTMYLQMNNLKPEDTAVYYCAAYSVPYGDFCTLNYDLMDYWGKGTLVTVSS",
    "label-value": "NOT MET"
  },
  {
    "binder": "137-18 VHH-hFc recombinant antibody (Fc fusion, VHH fragment inserted into vector pFclG with human IgG1 Fc tag, expressed in HEK293F; also called CD137-18; not shown: human IgG1 Fc tag of the eukaryotic expression vector pFclG) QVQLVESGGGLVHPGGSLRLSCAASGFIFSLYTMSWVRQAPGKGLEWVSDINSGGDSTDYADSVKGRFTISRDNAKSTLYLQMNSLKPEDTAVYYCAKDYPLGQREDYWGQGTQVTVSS",
    "label-value": "NOT MET"
  },
  {
    "binder": "137-12 VHH-hFc recombinant antibody (Fc fusion, VHH fragment inserted into vector pFclG with human IgG1 Fc tag, expressed in HEK293F; not shown: human IgG1 Fc tag of the eukaryotic expression vector pFclG) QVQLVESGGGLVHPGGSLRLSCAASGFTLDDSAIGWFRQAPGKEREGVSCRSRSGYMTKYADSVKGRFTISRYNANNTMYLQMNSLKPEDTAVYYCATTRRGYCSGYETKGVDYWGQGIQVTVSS",
    "label-value": "MET"
  }
]
